# Test system: Duroc×Landrace×Yorkshire cross-bred bacon-type pigs
# Experiment Summary: Effect of the glutamine derivatives on the production performance of hogs (piglets), 28-day feeding
# Assay type: in vivo
# Study Conditions: 65-day-old pigs, basal ration + 800 ppm, 28 days
# Source text: 480 65-day-old Duroc×Landrace×Yorkshire cross-bred bacon-type pigs with similar body weight, were randomly divided into 16 groups, with 3 replications per group and 10 pigs (half of male and female) per replication. The pig pen and tools were sterilized before the experiment. […] The experiment lasted for 28 days.
Provide the recorded ADFI (average daily feed intake) for the entries that follow.
Answer format: value, then unit.

CCNC(=O)CCC(NC(=O)c1ccc(O)cc1)C(=O)O (stereo not drawn) :: 1599 g/d per piglet
CCNC(=O)CCC(NC(=O)c1ccc(C)cc1)C(=O)O (stereo not drawn) :: 1592 g/d per piglet

Quick batch: ADFI (average daily feed intake) for everything below.
1. CCCCCCCCCC(=O)NC(CCC(=O)NCC)C(=O)O (stereo not drawn)
2. CCNC(=O)CCC(NC(=O)c1ccccc1)C(=O)[O-].CCNC(=O)CCC(NC(=O)c1ccccc1)C(=O)[O-].[Ca+2] (stereo not drawn)
3. CCCCCCCCCCCCCC(=O)NC(CCC(=O)NCC)C(=O)O (stereo not drawn)
4. CCNC(=O)CCC(NC(=O)c1ccccc1)C(=O)OCC (stereo not drawn)
5. CCNC(=O)CCC(NC(=O)c1ccccc1)C(=O)O (stereo not drawn)
6. CCCC(=O)NC(CCC(=O)NCC)C(=O)O (stereo not drawn)
7. O=C(NC(CCC(=O)N1CCCCC1)C(=O)O)c1ccccc1 (stereo not drawn)

stdout:
1: 1582 g/d per piglet; 2: 1636 g/d per piglet; 3: 1670 g/d per piglet; 4: 1615 g/d per piglet; 5: 1657 g/d per piglet; 6: 1609 g/d per piglet; 7: 1633 g/d per piglet

----------
# Test system: Duroc×Landrace×Yorkshire cross-bred bacon-type pigs
# Experiment Summary: Effect of the glutamine derivatives on the production performance of hogs (piglets), 28-day feeding
# Assay type: in vivo
# Study Conditions: 65-day-old pigs, basal ration + 800 ppm, 28 days; ADFI/ADG
Quantity Kind: FCR (feed conversion ratio)

Worked examples follow.
O=C(NC(CCC(=O)N1CCCCC1)C(=O)O)c1ccccc1 (centres unmarked) [Compound 5] :: 2.510
CCNC(=O)CCC(NC(=O)c1ccccc1)C(=O)OCC (centres unmarked) [Compound 6] :: 2.499
CCNC(=O)CCC(NC(=O)c1ccc(C)cc1)C(=O)O (centres unmarked) [Compound 11] :: 2.512
CCNC(=O)CCC(NC(=O)c1ccc(Cl)cc1)C(=O)O (centres unmarked) [Compound 10] :: 2.508

For the next question, use this compound.
stdin: # lookup: FCR (feed conversion ratio) of CCNC(=O)CCC(NC(=O)c1ccccc1)C(=O)[O-].CCNC(=O)CCC(NC(=O)c1ccccc1)C(=O)[O-].[Ca+2] (centres unmarked) [Compound 9]
stdout: 2.511

----------
# Test system: Duroc×Landrace×Yorkshire cross-bred bacon-type pigs
# Experiment Summary: Effect of the glutamine derivatives on the production performance of hogs (piglets), 28-day feeding
# Assay type: in vivo
# Study Conditions: 65-day-old pigs, basal ration + 800 ppm, 28 days
Provide the recorded ADFI (average daily feed intake) for the entries that follow.
Answer format: value, then unit.

CCNC(=O)CCC(NC(=O)c1ccc(Cl)cc1)C(=O)O (stereo not shown) :: 1607 g/d per piglet
CCNC(=O)CCC(NC(=O)c1ccccc1)C(=O)[O-].CCNC(=O)CCC(NC(=O)c1ccccc1)C(=O)[O-].[Zn+2] (stereo not shown) :: 1674 g/d per piglet
CCCCNC(=O)CCC(NC(=O)c1ccccc1)C(=O)O (stereo not shown) :: 1648 g/d per piglet

stdin: Notebook entry, Duroc×Landrace×Yorkshire cross-bred bacon-type pigs assay: ADFI (average daily feed intake) of CCNC(=O)CCC(NC(=O)c1ccccc1)C(=O)[O-].CCNC(=O)CCC(NC(=O)c1ccccc1)C(=O)[O-].[Cu+2] (stereo not shown) = ?
stdout: 1670 g/d per piglet
